Provenance of the data: PubChem BioAssay

biological target: Luciferin 4-monooxygenase (Photinus pyralis); assay: firefly luciferase enzyme inhibitors, primary screen, biochemical, luminescence, purified enzyme, 2006 set (AID 1141); settings: SteadyGlo luminescence, 30 min, higher = more signal, called active from +8 up or from −8 down;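 also: cell-free assay with purified firefly luciferase at 100 ng per well in PBS; test concentration not given here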
Measured Endpoint: z-score
Answer using only a numeral; do not append any unit.

Worked examples, 2 molecules total:
CC(C)=CCCC(C)=CCON=C1C[C@@H](O)[C@@H](O)[C@@H]2[C@@H]3C(=O)N(c4cccc(Oc5ccccc5)c4)C(=O)[C@@H]3CC[C@H]12
0.664
CC(C)CON=C1C[C@@H](O)[C@@H](O)[C@@H]2[C@@H]3C(=O)N(Cc4ccc5c(c4)OCO5)C(=O)[C@@H]3CC[C@@H]12
0.966

**Query** What z-score value was documented for this molecule, "CC(C)(C)N1C(=O)[C@H]2[C@H]3[C@H](O)[C@H](O)CC(=NOC[C@@H](O)COCc4ccco4)[C@@H]3CC[C@H]2C1=O" ?
**Result** -0.124
